- Species on record: Homo sapiens
- method-description: Liver toxicity in human assessed as induction of drug-induced liver injury by measuring verified drug-induced liver injury concern status
endpoint-label: DILI_Concern

1. COc1cc([C@@H]2c3cc4c(cc3[C@@H](O[C@@H]3O[C@@H]5CO[C@@H](c6cccs6)O[C@H]5[C@H](O)[C@H]3O)[C@H]3COC(=O)[C@H]23)OCO4)cc(OC)c1O [TENIPOSIDE] : Less-Dili-Concern
2. CNS(=O)(=O)CCc1ccc2[nH]cc(C3CCN(C)CC3)c2c1 : Ambiguous-Dili-Concern
3. CCCCC1=NC2(CCCC2)C(=O)N1Cc1ccc(-c2ccccc2-c2nnn[nH]2)cc1 : Less-Dili-Concern
4. CN(C)[C@@H]1C(O)=C(C(N)=O)C(=O)[C@@]2(O)C(O)=C3C(=O)c4c(O)cccc4[C@@](C)(O)[C@H]3C[C@@H]12 : Less-Dili-Concern

Challenge: Give its DILI_Concern value. Item: "CCCCc1ncc(/C=C(\Cc2cccs2)C(=O)O)n1Cc1ccc(C(=O)O)cc1"
Response given: Ambiguous-Dili-Concern

FYI, the data here is from ChEMBL document CHEMBL4028802.
